Target: Thromboxane-A synthase (Homo sapiens, UniProt P24557)
Sequence (P24557 whole entry): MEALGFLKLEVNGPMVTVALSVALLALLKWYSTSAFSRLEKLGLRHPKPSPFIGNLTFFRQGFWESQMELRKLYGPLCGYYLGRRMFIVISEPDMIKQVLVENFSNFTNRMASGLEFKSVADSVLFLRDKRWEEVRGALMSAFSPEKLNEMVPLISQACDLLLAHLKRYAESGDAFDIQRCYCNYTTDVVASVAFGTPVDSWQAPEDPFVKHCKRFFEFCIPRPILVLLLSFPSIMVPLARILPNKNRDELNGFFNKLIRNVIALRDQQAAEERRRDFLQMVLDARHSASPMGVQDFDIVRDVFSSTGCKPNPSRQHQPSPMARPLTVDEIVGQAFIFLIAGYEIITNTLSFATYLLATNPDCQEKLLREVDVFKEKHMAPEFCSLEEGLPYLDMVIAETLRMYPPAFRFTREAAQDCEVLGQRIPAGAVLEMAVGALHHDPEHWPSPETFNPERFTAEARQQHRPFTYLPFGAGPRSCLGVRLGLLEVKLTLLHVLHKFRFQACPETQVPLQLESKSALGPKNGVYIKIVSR
Test: Anti-synthetase activity against TXA2 synthase in human whole blood assay
Each item that follows carries a reported IC50.
ENDPOINT: IC50

1. O=C(O)CCc1c(Cc2cccnc2)ccc2c1CCC(NS(=O)(=O)c1ccc(Cl)cc1)C2 (stereo unspecified): > 10000 nM
2. Cc1c(Cc2cccnc2)cc2c(c1/C=C/CCCC(=O)O)CCC(NS(=O)(=O)c1ccc(Cl)cc1)C2 (stereo unspecified): 2900 nM
3. O=C(O)CC/C=C/c1cc(Cc2cccnc2)cc2c1CCC(NS(=O)(=O)c1ccc(Cl)cc1)C2 (stereo unspecified): > 10000 nM
4. Cc1c(Cc2cccnc2)cc2c(c1CCC(=O)O)CCC(NS(=O)(=O)c1ccc(Cl)cc1)C2 (stereo unspecified): 850 nM
5. O=C(O)CCc1c2c(cc(Cc3cccnc3)c1-c1ccccc1)CC(NS(=O)(=O)c1ccc(Cl)cc1)CC2 (stereo unspecified): > 10000 nM
6. O=C(O)CCC/C=C/c1cc(Cc2cccnc2)cc2c1CCC(NS(=O)(=O)c1ccc(Cl)cc1)C2 (stereo unspecified): > 5000 nM
7. O=C(O)CCc1cc(Cc2cccnc2)cc2c1CCC(NS(=O)(=O)c1ccc(Cl)cc1)C2 (stereo unspecified): 1100 nM
8. CCCc1c(Cc2cccnc2)cc2c(c1CCC(=O)O)CCC(NS(=O)(=O)c1ccc(Cl)cc1)C2 (stereo unspecified): 640 nM
9. O=C(O)CCC/C=C/c1c(Cc2cccnc2)ccc2c1CCC(NS(=O)(=O)c1ccc(Cl)cc1)C2 (stereo unspecified): 1100 nM
10. Cc1c(Cc2cccnc2)cc2c(c1/C=C\CCCC(=O)O)CCC(NS(=O)(=O)c1ccc(Cl)cc1)C2 (stereo unspecified): 960 nM
11. O=C(O)CC/C=C/c1c(Cc2cccnc2)ccc2c1CCC(NS(=O)(=O)c1ccc(Cl)cc1)C2 (stereo unspecified): 1400 nM
12. O=C(O)CCC/C=C\c1c(Cc2cccnc2)ccc2c1CCC(NS(=O)(=O)c1ccc(Cl)cc1)C2 (stereo unspecified): 350 nM
13. CCCCCc1c(Cc2cccnc2)cc2c(c1CCC(=O)O)CCC(NS(=O)(=O)c1ccc(Cl)cc1)C2 (stereo unspecified): 6600 nM
14. O=C(O)CCc1cc(-c2cccnc2)cc2c1CCC(NS(=O)(=O)c1ccc(Cl)cc1)C2 (stereo unspecified): > 5000 nM
15. O=C(O)CCC/C=C\c1cc(Cc2cccnc2)cc2c1CCC(NS(=O)(=O)c1ccc(Cl)cc1)C2 (stereo unspecified): 4200 nM
16. O=C(O)CCc1c(-c2cccnc2)ccc2c1CCC(NS(=O)(=O)c1ccc(Cl)cc1)C2 (stereo unspecified): > 10000 nM
